Target: MAP kinase-activated protein kinase 2 (Homo sapiens, UniProt P49137)
Sequence (P49137 whole entry): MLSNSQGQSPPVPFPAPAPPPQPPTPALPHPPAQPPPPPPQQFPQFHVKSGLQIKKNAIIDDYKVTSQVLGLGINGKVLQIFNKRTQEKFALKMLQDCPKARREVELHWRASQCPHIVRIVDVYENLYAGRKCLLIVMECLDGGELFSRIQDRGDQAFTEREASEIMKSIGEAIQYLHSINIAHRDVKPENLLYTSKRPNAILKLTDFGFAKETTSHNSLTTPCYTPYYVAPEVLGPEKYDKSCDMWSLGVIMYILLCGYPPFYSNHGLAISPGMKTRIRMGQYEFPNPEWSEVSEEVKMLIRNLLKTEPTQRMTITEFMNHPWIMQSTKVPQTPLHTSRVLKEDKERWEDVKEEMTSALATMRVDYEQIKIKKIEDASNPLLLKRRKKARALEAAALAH
Assay: Inhibition of MK2 in human U937 cells assessed as blockade of LPS-stimulated TNFalpha production
Assay type: cell-based, U-937
In this section we review reported pIC50 values for a set of compounds.
Please report pIC50 as the negative decimal logarithm of the molar concentration, giving only the number.

# compound.smiles, test.target, endpoint.result
measured = [
    ("COc1ccc2sc3c(c2c1)NC[C@@H](CN(C)Cc1ccccc1)NC3=O", "MAP kinase-activated protein kinase 2 (Homo sapiens, UniProt P49137)", 4.62),
    ("COC(=O)COc1ccc2sc3c(c2c1)NC[C@@H](C)NC3=O", "MAP kinase-activated protein kinase 2 (Homo sapiens, UniProt P49137)", 4.11),
    ("COc1ccc2sc3c(c2c1)NC[C@@H](CO)NC3=O", "MAP kinase-activated protein kinase 2 (Homo sapiens, UniProt P49137)", 6.40),
    ("COCCOc1ccc2sc3c(c2c1)NC[C@@H](C)NC3=O", "MAP kinase-activated protein kinase 2 (Homo sapiens, UniProt P49137)", 5.51),
    ("COc1ccc2sc3c(c2c1)SCCNC3=O", "MAP kinase-activated protein kinase 2 (Homo sapiens, UniProt P49137)", 5.26),
    ("CC(C)COc1ccc2sc3c(c2c1)NC[C@@H](C)NC3=O", "MAP kinase-activated protein kinase 2 (Homo sapiens, UniProt P49137)", 5.74),
    ("COc1cccc(COc2ccc3sc4c(c3c2)NC[C@@H](C)NC4=O)c1", "MAP kinase-activated protein kinase 2 (Homo sapiens, UniProt P49137)", 5.34),
    ("CCC[C@@H]1CNc2c(sc3ccc(OC)cc23)C(=O)N1", "MAP kinase-activated protein kinase 2 (Homo sapiens, UniProt P49137)", 5.26),
]

Complete the entry with pIC50 for `CCCNC[C@@H]1CNc2c(sc3ccc(OC)cc23)C(=O)N1`
4.83

Respond only with pIC50 recorded for `CCNC[C@@H]1CNc2c(sc3ccc(OC)cc23)C(=O)N1`
4.67

For the compound `C[C@@H]1CNc2c(sc3ccc(O)cc23)C(=O)N1` , give its reported pIC50.
5.46

Give the reported pIC50 for this compound. `COc1ccc2sc3c(c2c1)NC[C@@H](CN)NC3=O`
5.59
